Ref: patent US20250163183A1

# TESTED ON: human activated protein C (APC) (human, UniProt P04070 43-461)
# Sequence (P04070 other isoform, or with tags, fused parts or gaps): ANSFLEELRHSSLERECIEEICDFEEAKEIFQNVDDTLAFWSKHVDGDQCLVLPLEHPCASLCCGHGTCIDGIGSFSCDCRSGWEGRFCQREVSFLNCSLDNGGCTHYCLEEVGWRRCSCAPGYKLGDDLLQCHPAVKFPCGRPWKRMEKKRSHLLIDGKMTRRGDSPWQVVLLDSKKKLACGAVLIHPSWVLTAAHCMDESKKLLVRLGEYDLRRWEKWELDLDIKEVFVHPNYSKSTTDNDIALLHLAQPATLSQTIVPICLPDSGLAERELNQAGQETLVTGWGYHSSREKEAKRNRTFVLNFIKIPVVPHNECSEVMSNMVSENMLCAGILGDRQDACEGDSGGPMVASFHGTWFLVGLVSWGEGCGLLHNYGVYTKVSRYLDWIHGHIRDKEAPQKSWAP
# PROCEDURE SUMMARY: cell-based or functional assay
MEASURE: APC plasma T1/2 (min; mean) (min)
Give the value in min but do not write min after it.

Guide cases for APC plasma T1/2 (min; mean), answers given:
BINDER	APC plasma T1/2 (min; mean) / min
LP15 (SR16983-R3-P5-H05) (VHH, not shown: small tags and cut ends, Llama VHH purified from E. coli periplasm) VHH: QLQLVESGGGLVQAGGSLRLSCAASGTTFSFVYMGWYRQAPGNQRDLVARISSDGSTNYADSVKGRFTISGDNAKNTVYLQMNSLKPEDTARYYCFWNGHTNKWGQGTQVTVSS	36.4
LP4 (SR16983-R3-P2-A06) (VHH, not shown: small tags and cut ends, Llama VHH purified from E. coli periplasm) VHH: QLQLVESGGGLVQAGGSLRLSCAASGSTFNFRIMGWYRQVPGKQRELVAVINSGGSADYTEDVKGRFTISRDDAKSTMYLQMNSLKPEDTAVYYCHAKKVEPTLFTTTYWGQGTQVTVSS	33
LP12 (SR16983-R3-P3-F06) (VHH, not shown: small tags and cut ends, Llama VHH purified from E. coli periplasm) VHH: QLQLVESGGGLVQAGDSLRLSCTSSGLTASTYAMAWFRQAPGKEREFVAVVDWKGDTTYANSVKGRFTLSRDNGKNTNYLQMNSLQPEDTALYYCAARGSPGYVARLYAHWGRGTQVTVSS	50.1
LP7 (SR16983-R3-P2-H08) (VHH, not shown: small tags and cut ends, Llama VHH purified from E. coli periplasm) VHH: EVQLVESGGGLVQAGGSLRLSCAASGTTFDMNSMGWYRQGPGFKRELVATISMGGDTNYADSVKGRFTISRANAKNTVYMQMNSLKPEDTAVYYCNAERIWPNRRTFWGQGTQVTVSS	33.9

# query: APC plasma T1/2 (min; mean) of entry LP11 (SR16983-R3-P3-F03) (VHH, not shown: small tags and cut ends, Llama VHH purified from E. coli periplasm; also made in CHO cells for the endothelial barrier assay) VHH: QLQLVESGGGLAQAGGSLRLSCAASGRTFVGSYVMGWFRQAPGKEREFVAASSRSTGNTVYLDSVKGRFTISRDDAKNTLFLQMNRLKPEDTAVYYCATRASVNYNYAAWPYWGQGTQVTVSS
25

# query: APC plasma T1/2 (min; mean) of entry LP9 (SR16983-R3-P3-B05) (VHH, not shown: small tags and cut ends, Llama VHH purified from E. coli periplasm) VHH: EVQLVESGGGLVQAGGSLRLSCAASGRTFVGSYVMGWFRQAPGKEREFVAASSRSTGNTVYLDSVKGRFTVSRDDAKNTLYLQMNSLKTEDTAVYYCATRASINYNAATWPYWGQGTQVTVSS
27.7
